Task for the reader: assign each of the following compounds its reported CC50 at 24 h.
assay: Cytotoxicity against MDCK cells after 24 hrs by CellTiter 96 AQueous one solution cell proliferation assay; format: cell-based, Canis lupus familiaris; settings: dog

// returns reported CC50 at 24 h for input `O=C(COc1ccc(F)cc1)c1ccc(O)c(O)c1O`
> 200 µM

Now the same for `O=Cc1cc(Cc2ccccc2Cl)cc([N+](=O)[O-])c1O`
74.1 µM

Another compound to look at: `Oc1ccc(/C=N/Nc2ccc(Cl)cc2)c(O)c1O`
> 200 µM

----------
target: Polymerase acidic protein (Influenza A virus (A/Puerto Rico/8/1934(H1N1))); experiment: Inhibition of Influenza A/Puerto Rico/8/34 (H1N1) PA N-terminal domain endonuclease activity expressed in Escherichia coli BL21 (RIL) cells using (6-FAM)TGGCAATATCAGCTCCACA(MGBNFQ) as substrate by fluorescence assay
READOUT: pIC50
Units for pIC50: none; it is -log10 of a concentration expressed in mol/L.

Looking for the measured pIC50 of `O=c1[nH]c(-c2ccc(F)cc2)c(-c2ccc(-c3nnn[nH]3)cc2)cc1O` , can you help?
7.96

----------
target: Polymerase acidic protein (Influenza A virus (A/Puerto Rico/8/1934(H1N1))); assay: Inhibition of Influenza A/Perto Rico/8/34 (PR8) (H1N1) PA N-terminal domain (1 to 197) endonuclease activity expressed in Escherichia coli Rosetta (DE3) using (6-FAM)-AAT CGC AGG CAG CAC TC-(BHQ-1) as substrate measured every 50 secs for 30 mins by FRET assay
READOUT: IC50 (µM)
Entry rule: numbers only, all in µM.

Which IC50 is reported for this molecule? `O=C(COc1ccc(F)cc1)c1ccc(O)c(O)c1O`
9.7

Another molecule: `O=Cc1cc(Cc2ccccc2Cl)cc([N+](=O)[O-])c1O`
63

Another: `Oc1ccc(/C=N/Nc2ccc(Cl)cc2)c(O)c1O`
8.3

----------
For each record, write down the corresponding EC50.
tested on: unidentified influenza virus; test: Antiviral activity against Influenza virus infected in MDCK cells assessed as viral RNA content incubated with cells for 30 mins prior to addition of 30 mins preincubated virus-compound mixture for 1 hr followed by 3 times compound washout and again cultured in compound containing virus growth medium for 24 hrs by RT-PCR analysis; format: functional, organism-based
Output should be the measured figure followed by the unit it is expressed in.

Could you tell me which EC50 is on file for `O=Cc1cc(Cc2ccccc2Cl)cc([N+](=O)[O-])c1O` ?
11.5 µM

What do we get for `Oc1ccc(/C=N/Nc2ccc(Cl)cc2)c(O)c1O` ?
14.4 µM

How about this compound: `O=C(COc1ccc(F)cc1)c1ccc(O)c(O)c1O`
11.8 µM
